Biological target: human GLP1-R (Homo sapiens, UniProt P43220)
Sequence (P43220 24-463): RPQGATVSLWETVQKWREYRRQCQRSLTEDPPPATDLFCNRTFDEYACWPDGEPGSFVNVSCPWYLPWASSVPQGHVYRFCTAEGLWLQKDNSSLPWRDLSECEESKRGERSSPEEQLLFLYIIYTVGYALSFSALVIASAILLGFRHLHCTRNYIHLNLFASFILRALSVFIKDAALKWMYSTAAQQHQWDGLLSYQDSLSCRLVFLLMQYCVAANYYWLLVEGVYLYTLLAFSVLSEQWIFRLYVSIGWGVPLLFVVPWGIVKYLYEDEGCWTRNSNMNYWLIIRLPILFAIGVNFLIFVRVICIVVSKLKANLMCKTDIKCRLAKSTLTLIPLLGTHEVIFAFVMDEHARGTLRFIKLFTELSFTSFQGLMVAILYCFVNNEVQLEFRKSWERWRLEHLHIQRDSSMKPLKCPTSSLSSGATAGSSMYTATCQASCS
Assay: GLP1-R internalization assay in HEK293 cells
Type: cell-based
Conditions: HEK293 cells expressing SNAP-GLP-1R; read-out: GLP1R Internalization EC50
Starred links: 1 amine or outer side, 2 acyl side, 3 side chain; linkers in the order of their positions; H or OH if unused. Non-standard residues stand in square brackets, D forms with d. Groups on a side chain read outwards from the residue. No end group written: not given here. *: point of attachment. C20 diacid = O=C(O)CCCCCCCCCCCCCCCCCCC(=O)*; C18 diacid = O=C(O)CCCCCCCCCCCCCCCCC(=O)*; αMePhe(2-F) = C[C@](N)(Cc1ccccc1F)C(=O)O; γGlu = O=C(O)[C@H](CCC(=O)[*:2])N[*:1]; εLys = N[C@@H](CCCCN[*:1])C(=O)[*:2]; αMe4Pal = C[C@](N)(Cc1ccncc1)C(=O)O; αMeY = C[C@](N)(Cc1ccc(O)cc1)C(=O)O; 4Pal = N[C@@H](Cc1ccncc1)C(=O)O; αMeL = CC(C)C[C@](C)(N)C(=O)O; αMeS = C[C@](N)(CO)C(=O)O; Orn = NCCC[C@H](N)C(=O)O; AEEA = NCCOCCOCC(=O)O; Aib = CC(C)(N)C(=O)O
# Lookup of reported EC50 keyed by entry
Kindly provide the numeric value in nM only, without the unit symbol.

Consider the reported EC50 for these substances:
Substance	Result Units	EC50
H-Y[Aib]QGTFTSDFS[Orn][αMeL]LDKK([AEEA-AEEA-γGlu-C18 diacid])AQ[Aib]AFIEYLLE[Aib]G[4Pal]SSGAPPPSGE-NH2 [Example 189]	nM	103
H-Y[Aib]QGTFTSDFS[Orn][αMeL]LDKK([AEEA-γGlu-C18 diacid])AQ[Aib]AFIEYLLE[dA]GPSSGAPPPSGS-NH2 [Example 209]	nM	83.1
H-Y[Aib]QGTFTSDFS[Orn][αMeL]LDKK([AEEA-AEEA-γGlu-C20 diacid])AQ[Aib]AFIEYLLE[Aib]GPSSGEPPPGEG-NH2 [Example 69]	nM	71.9

Problem: # input substance: H-Y[Aib]QGTFTSDFSK[αMeL]LDKK([AEEA-γGlu-C20 diacid])AQ[Aib]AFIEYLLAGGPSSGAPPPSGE-NH2 [Example 11] ; wanted: its EC50
Result: 75.1

Problem: # input substance: H-Y[Aib]QGTFTSDFS[Orn][αMeL]LDKK([AEEA-AEEA-γGlu-C18 diacid])AQ[Aib]AFIEYLLE[Aib]GPSSGAPPPSGE-NH2 [Example 111] ; wanted: its EC50
Result: 49.1

Problem: # input substance: H-Y[Aib]QGTFTSDYSI[αMeL]LDKQAAK([εLys-εLys-γGlu-C20 diacid])QFVEWLLA[Aib]GPSSGEPPPSEG-NH2 [Example 329] ; wanted: its EC50
Result: 34

Problem: # input substance: H-Y[Aib]QGT[αMePhe(2-F)]TSD[4Pal][αMeS]I[αMeL]LD[Orn]K([AEEA-γGlu-C18 diacid])AQ[αMe4Pal]EFI[dE][αMeY]LIEGGPSSGAPPPSGSE-NH2 [Example 712] ; wanted: its EC50
Result: 35.3

Problem: # input substance: Y[Aib]QGTFTSDFS[Orn][αMeL]LDKK([AEEA-γGlu-C18 diacid])AQ[Aib]AFIEYLLAGGPSSGEPPPEGE-NH2 [Example 98] ; wanted: its EC50
Result: 56

Problem: # input substance: H-Y[Aib]QGTFTSDFS[Orn][αMeL]LDKK([AEEA-γGlu-C18 diacid])AQ[Aib]AFIEYLLE[Aib]GPSSGAPPPSGS-NH2 [Example 74] ; wanted: its EC50
Result: 72.7

Problem: # input substance: H-Y[Aib]QGTFTSDFS[Orn][αMeL]LDKK([AEEA-γGlu-C18 diacid])AQ[Aib]AFIEYLLE[Aib]GPSSG[Aib]PPPSGS-NH2 [Example 239] ; wanted: its EC50
Result: 72.6

Problem: # input substance: H-Y[Aib]QGTFTSDFS[Orn][αMeL]LDKK([AEEA-γGlu-C18 diacid])AQ[Aib]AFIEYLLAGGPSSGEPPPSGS-NH2 [Example 94] ; wanted: its EC50
Result: 37.1

Problem: # input substance: H-Y[Aib]QGTFTSDFS[Orn][αMeL]LDKK([AEEA-γGlu-C18 diacid])AQ[Aib]AFIEYLLEGG[4Pal]SSGAPPPGGS-NH2 [Example 163] ; wanted: its EC50
Result: 143
